Source listed as PubChem BioAssay (NCATS).

biological target: DNA polymerase III PolC-type (Bacillus subtilis (strain 168)); test: qHTS Validation Assay for the Inhibitors of DNA Replication in Gram-Positive Bacteria (AID 485295); settings: Gram-positive bacterial DNA replication assay; series mostly up to 57.1 µM
Calls of active or inactive are those of the source. Calls come from the whole dose curve; as a rule, active = well fitted inhibition curve with a large enough effect; inconclusive = small, poorly fitted or top-dose-only effect; inactive = flat fitted curve, though single readings scatter.
Classes used: label 1 (active), label 0 (inactive)

{"Compound": "O=C1CC[C@@]2(O)C3Cc4ccc(O)c5c4C2(CCN3CC2CC2)[C@H]1O5 (stereo partly specified)", "Label value": "label 0"}
{"Compound": "CC(N)Cc1c[nH]c2ccc(O)cc12 (stereo unspecified)", "Label value": "label 0"}
{"Compound": "CC(N)c1cccc(Cl)c1Cl (stereo unspecified)", "Label value": "label 0"}
{"Compound": "Nc1ccc(CCN2CCN(c3cccc(C(F)(F)F)c3)CC2)cc1", "Label value": "label 0"}
{"Compound": "CC(C)[C@@]1(NC(=O)[C@@H]2C[C@@H]3c4cccc5[nH]cc(c45)C[C@H]3N(C)C2)O[C@@]2(O)[C@@H]3CCCN3C(=O)[C@H](Cc3ccccc3)N2C1=O", "Label value": "label 0"}
{"Compound": "CCCn1c(C)c(C(=O)c2ccc3ccccc3c2)c2ccccc21", "Label value": "label 0"}
{"Compound": "CCCN(CCC)CCc1c[nH]c2ccc(C(N)=O)cc12", "Label value": "label 0"}
{"Compound": "CCS(=O)(=O)Nc1cccc(C(=C2CCCCC2)c2cnc[nH]2)c1", "Label value": "label 0"}
{"Compound": "COc1ccc2c(c1)C13CCCCC1C(C2)N(C)CC3 (stereo unspecified)", "Label value": "label 0"}
{"Compound": "NC(Cc1ccc(N(CCCl)CCCl)cc1)C(=O)O (stereo unspecified)", "Label value": "label 0"}
{"Compound": "Oc1ccc2c3c1O[C@H]1c4oc5ccccc5c4C[C@@]4(O)C(C2)N(CC2CC2)CCC314 (stereo partly specified)", "Label value": "label 0"}
{"Compound": "COc1cc(CC(C)N)c(OC)cc1I (stereo unspecified)", "Label value": "label 0"}
{"Compound": "C=CCN(C1=NCCN1)c1c(Cl)cccc1Cl", "Label value": "label 0"}
{"Compound": "O=c1c2ccccc2[se]n1-c1ccccc1", "Label value": "label 1"}
{"Compound": "OCc1cnc[nH]1", "Label value": "label 0"}
{"Compound": "COc1ccc2c(c1O)-c1cccc3c1[C@@H](C2)N(C)CC3", "Label value": "label 0"}
{"Compound": "NCCc1ccc(S(=O)(=O)F)cc1", "Label value": "label 0"}
{"Compound": "Clc1cc(I)cc(Cl)c1NC1=NCCN1", "Label value": "label 0"}
{"Compound": "CN(N=O)c1ccc(O)c(O)c1", "Label value": "label 1"}
{"Compound": "Clc1ccc(N2CC3CCC(C2)N3)nn1", "Label value": "label 0"}
{"Compound": "CCN(CCCl)Cc1ccccc1Br", "Label value": "label 0"}
{"Compound": "NNC(N)=O", "Label value": "label 0"}
{"Compound": "CC(N)[C@H](O)c1ccc(O)c(O)c1 (stereo partly specified)", "Label value": "label 0"}
{"Compound": "CN1CC[C@@]2(C)c3cc(O)ccc3N(C)C12 (stereo partly specified)", "Label value": "label 0"}
{"Compound": "C=CCN1CCc2cccc3c2[C@H]1Cc1ccc(O)c(O)c1-3", "Label value": "label 0"}
{"Compound": "NC(=O)COc1c(F)cc(SCCNS(=O)(=O)c2ccccc2)cc1F", "Label value": "label 0"}

###

assay: Cell Viability - Jurkat (AID 426); settings: qHTS;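 note: potency is the fitted concentration of half-maximal effect; cells exposed to compound for 40 hours at 37 °C before ATP read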
Results filed as inconclusive are left out. Calls of active or inactive are those of the source.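 The calls were made as follows: active = dose-dependent loss of cell ATP signal giving a full or clear fitted curve, ranked by lower potency value; inconclusive = weak partial curve or response only at the top dose; inactive = no loss of viability signal.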
Classes used: T (active), F (inactive)

{"Compound": "O=Cc1ccco1", "Label value": "F"}
{"Compound": "O=C1CCO1", "Label value": "F"}
{"Compound": "CCCCCl", "Label value": "F"}
{"Compound": "CCOC(=O)c1ccccc1C(=O)OCC", "Label value": "F"}
{"Compound": "Clc1ccccc1Cl", "Label value": "F"}
{"Compound": "ClC=C(Cl)Cl", "Label value": "F"}
{"Compound": "O=[N+]([O-])c1ccc(F)c([N+](=O)[O-])c1", "Label value": "T"}
{"Compound": "[Cl-].[Cl-].[Hg+2]", "Label value": "T"}
{"Compound": "S=C=S", "Label value": "F"}
{"Compound": "O=C(O)C(Cl)(Cl)Cl", "Label value": "F"}
{"Compound": "O=CC=O", "Label value": "F"}
{"Compound": "C[C@H]1CC[C@@H]2[C@@H](C)[C@H]3[C@H](C[C@H]4[C@@H]5CC=C6CC(O[C@@H]7O[C@H](CO)[C@H](O)[C@H](O[C@@H]8O[C@H](CO)[C@@H](O)[C@H](O)[C@H]8O)[C@H]7O[C@H]7O[C@@H](C)[C@H](O)[C@@H](O)[C@H]7O)CC[C@]6(C)[C@H]5CC[C@]34C)N2C1 (some centres undefined)", "Label value": "T"}
{"Compound": "ClCC1CO1 (centres undefined)", "Label value": "F"}
{"Compound": "C[C@]12CCC(=O)C[C@@H]1CC[C@@H]1[C@@H]2CC[C@]2(C)[C@@H](O)CC[C@@H]12", "Label value": "F"}
{"Compound": "C[C@H]1CCC[C@H](O)CCCCCc2cc(O)cc(O)c2C(=O)O1", "Label value": "F"}
{"Compound": "COC1=CC(=O)O[C@@H](/C=C/c2ccccc2)C1", "Label value": "F"}
{"Compound": "COc1ccc2c(c1OC)C(=O)OC2C1c2cc3c(cc2CCN1C)OCO3 (centres undefined)", "Label value": "F"}
{"Compound": "O=C1C=CC(=O)C=C1", "Label value": "T"}
{"Compound": "CC(C)CCON=O", "Label value": "F"}

###

system: DIV30; test: qHTS profiling for inhibitors of Plasmodium falciparum proliferation (AID 504749); note: nearly all actives have a fitted effect of over 60% in size; conditions: P. falciparum in erythrocytes, SYBR Green DNA, 72 h; series mostly up to 28.7 µM
Results filed as inconclusive are left out. Active and inactive are the calls of the source. Calls come from the whole dose curve; as a rule, active = well fitted inhibition curve with a large enough effect; inconclusive = small, poorly fitted or top-dose-only effect; inactive = flat fitted curve, though single readings scatter.
Classes used: active, inactive

{"Compound": "O=C(NCNC(=O)NC1C(=O)NC(=O)N1CO)NC1C(=O)NC(=O)N1CO (centres undefined)", "Label value": "inactive"}
{"Compound": "C[N+]1(C)CCCCC1COC(=O)C(O)(c1ccccc1)c1ccccc1 (centres undefined)", "Label value": "inactive"}
{"Compound": "C[N+]1(C)C2CCC1CC(OC(=O)c1c[nH]c3ccccc13)C2 (centres undefined)", "Label value": "inactive"}
{"Compound": "O=C(O)C(Cl)(Cl)Cl", "Label value": "inactive"}
{"Compound": "O=C1CC[C@@]2(O)C3Cc4ccc(O)c5c4C2(CCN3CC2CC2)[C@H]1O5 (some centres undefined)", "Label value": "inactive"}
{"Compound": "CCC1(c2ccccc2)C(=O)NC(=O)N(C)C1=O (centres undefined)", "Label value": "inactive"}
{"Compound": "c1ccc2cc(CC3=NCCN3)ccc2c1", "Label value": "inactive"}
{"Compound": "CC(C)(C)c1cc(O)ccc1O", "Label value": "active"}
{"Compound": "S=C=S", "Label value": "inactive"}
{"Compound": "O=C(CS(=O)C(c1ccccc1)c1ccccc1)NO (centres undefined)", "Label value": "inactive"}
{"Compound": "CCC(C)(S(=O)(=O)CC)S(=O)(=O)CC", "Label value": "inactive"}
{"Compound": "ClC(Cl)(Cl)Cl", "Label value": "inactive"}
{"Compound": "CCC1(CC)C(=O)NC(=O)N(C)C1=O", "Label value": "inactive"}
{"Compound": "O=P(O)(O)C(Cl)(Cl)P(=O)(O)O", "Label value": "inactive"}
{"Compound": "O=C1C2CC=CCC2C(=O)N1SC(Cl)(Cl)Cl (centres undefined)", "Label value": "inactive"}
{"Compound": "CC(=O)OC1CN2CCC1CC2 (centres undefined)", "Label value": "inactive"}
{"Compound": "O=c1[nH]c(=O)n(Cl)c(=O)n1Cl", "Label value": "inactive"}
{"Compound": "C[C@H]1CC[C@@H]2[C@@H](C)[C@H]3[C@H](C[C@H]4[C@@H]5CC=C6CC(O[C@@H]7O[C@H](CO)[C@H](O)[C@H](O[C@@H]8O[C@H](CO)[C@@H](O)[C@H](O)[C@H]8O)[C@H]7O[C@H]7O[C@@H](C)[C@H](O)[C@@H](O)[C@H]7O)CC[C@]6(C)[C@H]5CC[C@]34C)N2C1 (some centres undefined)", "Label value": "inactive"}
{"Compound": "O=c1[nH]cc(N(CCCl)CCCl)c(=O)[nH]1", "Label value": "inactive"}
{"Compound": "S=C(S)N1CCNCC1", "Label value": "inactive"}
{"Compound": "CCCCCCCCOC(=O)c1ccccc1C(=O)OCCCCCCCC", "Label value": "inactive"}
{"Compound": "Oc1cc(Cl)c(Cl)cc1Cl", "Label value": "inactive"}
{"Compound": "C[CH2][Hg][S]c1ccccc1C(=O)O", "Label value": "active"}
{"Compound": "CCC(N)Cc1c[nH]c2ccccc12 (centres undefined)", "Label value": "inactive"}
